Target: T1, HLA-A*0201 molecule expressed on human T2 cells (human)
T1 construct: surface HLA-A2 detected with anti-HLA-A2-PE (clone REA517); also called HLA-A2
Test: T2 cell HLA-A*0201 binding assay, anti-HLA-A2-PE flow cytometry
Experimental: T2 cells (5·10⁴ cells per well) are incubated with decreasing concentrations of peptides from 100 μM to 0.1 μM (4 points: 100 μM, 10 μM, 1 μM, 0.1 μM) in serum-free medium (TexMacs) supplemented with 100 ng/μl of 2 Microglobulin at 37° C. for 16 hours. Cells are then washed two times and marked with the anti-HLA-A2 antibody coupled to PE (clone REA517, Miltenyi). […]
experimental readout: mean relative fluorescence intensity at 0.1 µM peptide

>>> reported("SLLSIQSYV (also called ENT172_B1) [UBE2C-B2]")
"14.2 % of HIV pol reference peptide"

Could you share which mean relative fluorescence intensity at 0.1 µM peptide value was measured for ILLSIQSLL [UBE2C-H2] ?
2.1 % of HIV pol reference peptide

Could you share which mean relative fluorescence intensity at 0.1 µM peptide value was measured for LVIGIILAV (also called ENT176-H) [CDH17-H1] ?
0.5 % of HIV pol reference peptide

Could you share which mean relative fluorescence intensity at 0.1 µM peptide value was measured for VLNPELLML (also called ENT207_B4) [KIF2C-B13] ?
10.5 % of HIV pol reference peptide

Could you share which mean relative fluorescence intensity at 0.1 µM peptide value was measured for AINPELLQL (also called ENT207-H) [KIF2C-H1] ?
0 % of HIV pol reference peptide

Could you share which mean relative fluorescence intensity at 0.1 µM peptide value was measured for ALYDVRTIL (also called ENT168-H) [UBE2C-H1] ?
3.8 % of HIV pol reference peptide

Could you share which mean relative fluorescence intensity at 0.1 µM peptide value was measured for ALYSEILTV (also called ENT169_B1; ENT_169-B1) [ANKRD30A-B1] ?
33.3 % of HIV pol reference peptide

Could you share which mean relative fluorescence intensity at 0.1 µM peptide value was measured for TLDQKLFMV (also called ENT180_B1) [ANKRD30A-B3] ?
18.8 % of HIV pol reference peptide
